measured-on: T1, Goat anti-Human Kappa
T1 construct: Positive control; also called biotinylated goat anti-human kappa light chain
procedure-details: ELISA; positive control; further: test concentration or dose not given here
measurement-type: optical density (OD)
Report the value in OD with no unit label.

// worked examples, optical density included
365_A09 (antibody, V domains shown, VH/VL only) VH: EVQLLESGGGLVQPGGSLRLSCAASGFTFSSYGMHWVRQAPGKGLEWVASINYNGGYTSYADSVKGRFTISRDNSKNTLYLQMNSLRAEDTAVYYCARGATWHDTHLDYWGQGTLVTVSS VL: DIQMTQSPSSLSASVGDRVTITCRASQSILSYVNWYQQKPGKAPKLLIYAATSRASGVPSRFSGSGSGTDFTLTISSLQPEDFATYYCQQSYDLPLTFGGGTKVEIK : 3.3
365_H05 (antibody, V domains shown, VH/VL only) VH: EVQLLESGGGLVQPGGSLRLSCAASGFTFSSYGMNWVRQAPGKGLEWVAGINYNGGYTSYADSVKGRFTISRDNSKNTLYLQMNSLRAEDTAVYYCARGATWHDTHLDYWGQGTLVTVSS VL: DIQMTQSPSSLSASVGDRVTITCRASQSILTYVNWYQQKPGKAPKLLIYAATSLHSGVPSRFSGSGSGTDFTLTISSLQPEDFATYYCQQSYSTPLTFGGGTKVEIK : 3.46

In the following, a different binder is considered.
Input: Let me know recorded optical density for 370_F01 (antibody, V domains shown, VH/VL only) VH: EVQLLESGGGLVQPGGSLRLSCAASGFTFSSYGMNWVRQAPGKGLEWVSNINYNGGYTSYADSVKGRFTISRDNSKNTLYLQMNSLRAEDTAVYYCARGATWHDTHLDYWGQGTLVTVSS VL: DIQMTQSPSSLSASVGDRVTITCRASQSIVSYLNWYQQKPGKAPKLLIYAATSRASGVPSRFSGSGSGTDFTLTISSLQPEDFATYYCQQSYDSPLTFGGGTKVEIK , thanks.
Output: 3.67
